# key: entry, value: Phospho-SMAD3 Human Skeletal Muscle GDF8
target: ACVR2A on primary human myotubes (human, UniProt P27037 20-513); test: cell-based or functional assay
Sequence (P27037 20-513): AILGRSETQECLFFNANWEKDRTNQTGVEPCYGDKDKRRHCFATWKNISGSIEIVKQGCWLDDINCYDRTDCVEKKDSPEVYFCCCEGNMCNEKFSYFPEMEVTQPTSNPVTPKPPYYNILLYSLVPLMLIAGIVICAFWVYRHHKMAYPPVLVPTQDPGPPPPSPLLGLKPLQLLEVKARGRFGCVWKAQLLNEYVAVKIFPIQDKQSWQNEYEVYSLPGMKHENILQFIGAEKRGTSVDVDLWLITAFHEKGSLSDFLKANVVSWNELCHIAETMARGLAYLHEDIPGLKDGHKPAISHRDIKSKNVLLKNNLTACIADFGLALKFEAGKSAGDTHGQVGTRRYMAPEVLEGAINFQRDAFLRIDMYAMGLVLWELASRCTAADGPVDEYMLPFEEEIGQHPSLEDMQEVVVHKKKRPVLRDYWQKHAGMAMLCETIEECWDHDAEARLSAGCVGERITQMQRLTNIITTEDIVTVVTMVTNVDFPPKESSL
Response field accepts a number only; no unit should be typed.

Use these answered entries as a reference point.
binder | Phospho-SMAD3 Human Skeletal Muscle GDF8
374_B03 (antibody, V domains shown) VH: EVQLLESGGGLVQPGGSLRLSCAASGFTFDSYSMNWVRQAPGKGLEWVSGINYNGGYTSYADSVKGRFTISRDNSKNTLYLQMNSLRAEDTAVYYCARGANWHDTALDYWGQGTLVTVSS VL: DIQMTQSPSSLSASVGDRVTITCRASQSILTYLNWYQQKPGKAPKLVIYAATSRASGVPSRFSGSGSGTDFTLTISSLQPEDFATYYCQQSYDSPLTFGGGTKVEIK | 0.027
374_C01 (antibody, V domains shown) VH: EVQLLESGGGLVQPGGSLRLSCAASGFTFDSYGMNWVRQAPGKGLEWVSGINYNSGYKSYADSVKGRFTISRDNSKNTLYLQMNSLRAEDTAVYYCARGANWHDTALDYWGQGTLVTVSS VL: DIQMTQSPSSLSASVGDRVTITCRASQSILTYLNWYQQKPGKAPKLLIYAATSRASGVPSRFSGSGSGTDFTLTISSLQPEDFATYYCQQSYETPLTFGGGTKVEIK | 1.11
375_G05 (antibody, V domains shown) VH: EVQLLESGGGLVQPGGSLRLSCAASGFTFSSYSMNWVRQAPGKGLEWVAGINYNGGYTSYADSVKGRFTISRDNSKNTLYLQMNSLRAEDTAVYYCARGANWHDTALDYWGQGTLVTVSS VL: DIQMTQSPSSLSASVGDRVTITCRASQSIVSYLNWYQQKPGKAPKLLIYAVTSRASGVPSRFSGSGSGTDFTLTISSLQPEDFATYYCQQSYDSPLTFGGGTKVEIK | 0.0052
375_F02 (antibody, V domains shown) VH: EVQLLESGGGLVQPGGSLRLSCAASGFTFSSYSMNWVRQAPGKGLEWVASINYNSGYTSYADSVKGRFTISRDNSKNTLYLQMNSLRAEDTAVYYCARGANWHDTHLDYWGQGTLVTVSS VL: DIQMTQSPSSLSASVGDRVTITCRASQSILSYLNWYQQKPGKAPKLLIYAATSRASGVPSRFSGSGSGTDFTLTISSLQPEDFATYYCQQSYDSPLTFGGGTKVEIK | 0.0076
369_H08 (antibody, V domains shown) VH: EVQLLESGGGLVQPGGSLRLSCAASGFTFSSYSMNWVRQAPGKGLEWVAGINYNSGYKSYADSVKGRFTISRDNSKNTLYLQMNSLRAEDTAVYYCARGATWHDTHLDYWGQGTLVTVSS VL: DIQMTQSPSSLSASVGDRVTITCRASQSILSYVNWYQQKPGKAPKLVIYAATSLASGVPSRFSGSGSGTDFTLTISSLQPEDFATYYCQQSYESPLTFGGGTKVEIK | 0.0308

Kindly note the recorded Phospho-SMAD3 Human Skeletal Muscle GDF8 for 370_E04 (antibody, V domains shown) VH: EVQLLESGGGLVQPGGSLRLSCAASGFTFSSYSMNWVRQAPGKGLEWVANINYNGGYKGYADSVKGRFTISRDNSKNTLYLQMNSLRAEDTAVYYCARGATWHDTHLDYWGQGTLVTVSS VL: DIQMTQSPSSLSASVGDRVTITCRASQSILTYLNWYQQKPGKAPKLLIYAVTSLHSGVPSRFSGSGSGTDFTLTISSLQPEDFATYYCQQSYETPLTFGGGTKVEIK , which is 0.0136

Kindly note the recorded Phospho-SMAD3 Human Skeletal Muscle GDF8 for 374_C12 (antibody, V domains shown) VH: EVQLLESGGGLVQPGGSLRLSCAASGFTFSSYSMNWVRQAPGKGLEWVAGINYNGGYKSYADSVKGRFTISRDNSKNTLYLQMNSLRAEDTAVYYCARGANWHDTALDYWGQGTLVTVSS VL: DIQMTQSPSSLSASVGDRVTITCRASQSILTYLNWYQQKPGKAPKLVIYAATSRASGVPSRFSGSGSGTDFTLTISSLQPEDFATYYCQQSDNSPLTFGGGTKVEIK , which is 0.027

Kindly note the recorded Phospho-SMAD3 Human Skeletal Muscle GDF8 for 370_F12 (antibody, V domains shown) VH: EVQLLESGGGLVQPGGSLRLSCAASGFTFSDYSMNWVRQAPGKGLEWVANINYNGGYTGYADSVKGRFTISRDNSKNTLYLQMNSLRAEDTAVYYCARGATWHDTHLDYWGQGTLVTVSS VL: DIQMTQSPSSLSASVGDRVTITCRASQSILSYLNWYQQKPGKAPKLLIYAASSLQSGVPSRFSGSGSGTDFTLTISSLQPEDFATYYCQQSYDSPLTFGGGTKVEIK , which is 0.0066

Kindly note the recorded Phospho-SMAD3 Human Skeletal Muscle GDF8 for 375_A07 (antibody, V domains shown) VH: EVQLLESGGGLVQPGGSLRLSCAASGFTFDSYSMNWVRQAPGKGLEWVSSINYNSGYTGYADSVKGRFTISRDNSKNTLYLQMNSLRAEDTAVYYCARGANWHDTHLDYWGQGTLVTVSS VL: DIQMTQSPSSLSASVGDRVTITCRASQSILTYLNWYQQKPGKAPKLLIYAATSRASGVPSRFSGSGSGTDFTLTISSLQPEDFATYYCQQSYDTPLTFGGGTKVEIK , which is 0.014

Kindly note the recorded Phospho-SMAD3 Human Skeletal Muscle GDF8 for 371_B01 (antibody, V domains shown) VH: EVQLLESGGGLVQPGGSLRLSCAASGFTFDSYSMNWVRQAPGKGLEWVSNINYNSGYTGYADSVKGRFTISRDNSKNTLYLQMNSLRAEDTAVYYCARGATWHDTHLDYWGQGTLVTVSS VL: DIQMTQSPSSLSASVGDRVTITCRASQSILSYVNWYQQKPGKAPKLLIYAATSLASGVPSRFSGSGSGTDFTLTISSLQPEDFATYYCQQSYDLPLTFGGGTKVEIK , which is 0.0076

Kindly note the recorded Phospho-SMAD3 Human Skeletal Muscle GDF8 for 370_C07 (antibody, V domains shown) VH: EVQLLESGGGLVQPGGSLRLSCAASGFTFSSYSMNWVRQAPGKGLEWVANINYNGGYKSYADSVKGRFTISRDNSKNTLYLQMNSLRAEDTAVYYCARGATWHDTHLDYWGQGTLVTVSS VL: DIQMTQSPSSLSASVGDRVTITCRASQSILSYLNWYQQKPGKAPKLLIYAATSRHSGVPSRFSGSGSGTDFTLTISSLQPEDFATYYCQQSYESPLTFGGGTKVEIK , which is 0.0044
